- Assay Explanation: Antioxidant activity assessed as trolox equivalent of AAPH radical scavenging activity at 10 uM preincubated for 10 mins followed by AAPH challenge measured every min for 120 mins by ORAC-FL assay
- Format: functional
This section presents compounds with their documented Activity values.
Quantity Measured: Activity

| Compound Smiles | Obs Value |
| --- | --- |
| COc1cc(/C=C/c2ccc(NCc3cc([N+](=O)[O-])ccc3O)cc2)cc(OC)c1 | 2.51 equiv |
| COc1ccc(/C=C/c2ccc(NCc3cc(N(C)C)ccc3O)cc2)cc1 | 2.37 equiv |
| O=[N+]([O-])c1ccc(O)c(CNc2ccc(/C=C/c3cc(O)cc(O)c3)cc2)c1 | 4.23 equiv |
| Oc1cc(O)cc(/C=C/c2ccc(NCc3cccc(O)c3O)cc2)c1 | 3.26 equiv |
| COc1cc(/C=C/c2ccc(NCc3ccccc3OC)cc2)cc(OC)c1 | 3.67 equiv |
| COc1cc(/C=C/c2ccc(NCc3cccc(OC)c3O)cc2)cc(OC)c1 | 4.54 equiv |
| COc1cc(/C=C/c2ccc(NCc3cc[nH]c3)cc2)cc(OC)c1 | 3.51 equiv |
| CCCNc1ccc(O)c(CNc2ccc(/C=C/c3cc(OC)cc(OC)c3)cc2)c1 | 2.91 equiv |
| COc1cc(/C=C/c2ccc(NCc3ccc(OC)cc3O)cc2)cc(OC)c1 | 3.32 equiv |
| CN(C)c1ccccc1CNc1ccc(/C=C/c2cc(O)cc(O)c2)cc1 | 3.57 equiv |
